Ref: BindingDB's records for doi:10.7270/Q2N8786X

- assay-system: Muscarinic acetylcholine receptor M5 (Homo sapiens, UniProt P08912)
- Sequence (P08912 whole entry): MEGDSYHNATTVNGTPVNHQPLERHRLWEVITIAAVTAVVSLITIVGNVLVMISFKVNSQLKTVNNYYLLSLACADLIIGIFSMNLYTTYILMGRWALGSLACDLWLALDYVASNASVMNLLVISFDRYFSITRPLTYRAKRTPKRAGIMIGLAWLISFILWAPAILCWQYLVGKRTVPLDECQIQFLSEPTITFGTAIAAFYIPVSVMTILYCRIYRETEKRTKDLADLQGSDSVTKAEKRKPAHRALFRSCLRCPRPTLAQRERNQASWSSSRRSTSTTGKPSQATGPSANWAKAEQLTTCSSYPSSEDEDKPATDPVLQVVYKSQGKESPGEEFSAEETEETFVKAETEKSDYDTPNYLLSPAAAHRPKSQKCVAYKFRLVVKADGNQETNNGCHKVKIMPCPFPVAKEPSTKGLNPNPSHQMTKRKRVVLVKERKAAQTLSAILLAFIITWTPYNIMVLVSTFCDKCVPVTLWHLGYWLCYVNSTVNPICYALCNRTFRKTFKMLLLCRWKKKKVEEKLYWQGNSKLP
- procedure-text: binding competition at muscarinic M5 – biochemical, [3H]N-methylscopolamine (AID 2192)
- conditions: inactive by the depositor's call
pKi: −log10 of the molar value.
reported-property: pKi

COc1ccc(CN2C(=O)C(=O)c3cc(OC(F)(F)F)ccc32)cc1	5.94
